- Test system: HepG2
- protocol_text: Cytotoxicity against human HepG2 cells after 3 days by MTT assay
- Format: functional, cell-based
- experimental_parameters: HepG2, 72 h
assay_endpoint: IC50 (µM)

structure_smiles_string=COc1cc(O)ccc1C(=O)/C=C/c1ccc(O)cc1 unit_text=µM endpoint_result=7.37
